biological target: BR P.1 variant RBD (R319-F541 with K417T, E484K, N501Y), C-terminal 6-His (SARS-CoV-2, UniProt P0DTC2 319-541); assay: flow cytometry, blocking of binding to hACE-2 cells
Decide using percent blocking: a value greater than or equal to 80% is Condition met, a smaller one is Condition not met.

binder	assigned-category
1035419 (antibody, V domains shown) VH: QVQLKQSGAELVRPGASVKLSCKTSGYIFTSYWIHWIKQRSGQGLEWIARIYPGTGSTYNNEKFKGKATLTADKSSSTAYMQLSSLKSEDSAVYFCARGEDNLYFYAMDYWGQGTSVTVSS VL: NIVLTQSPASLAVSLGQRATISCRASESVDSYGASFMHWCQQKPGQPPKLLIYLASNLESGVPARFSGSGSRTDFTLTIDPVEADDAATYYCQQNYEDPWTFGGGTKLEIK	Condition not met
1035716 (antibody, V domains shown) VH: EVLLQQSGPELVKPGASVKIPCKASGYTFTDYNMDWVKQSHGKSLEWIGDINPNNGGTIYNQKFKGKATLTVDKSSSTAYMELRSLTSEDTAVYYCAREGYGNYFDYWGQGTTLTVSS VL: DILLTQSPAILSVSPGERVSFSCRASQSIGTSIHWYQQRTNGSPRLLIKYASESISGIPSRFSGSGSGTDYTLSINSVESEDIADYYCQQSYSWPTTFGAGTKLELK	Condition met
1035762 (antibody, V domains shown) VH: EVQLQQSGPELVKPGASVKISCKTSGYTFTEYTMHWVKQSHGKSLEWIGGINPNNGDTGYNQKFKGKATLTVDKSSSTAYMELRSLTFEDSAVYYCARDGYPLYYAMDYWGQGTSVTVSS VL: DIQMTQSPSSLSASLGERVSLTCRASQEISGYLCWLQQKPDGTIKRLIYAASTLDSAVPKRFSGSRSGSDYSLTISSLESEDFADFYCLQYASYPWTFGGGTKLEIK	Condition not met
1035752 (antibody, V domains shown) VH: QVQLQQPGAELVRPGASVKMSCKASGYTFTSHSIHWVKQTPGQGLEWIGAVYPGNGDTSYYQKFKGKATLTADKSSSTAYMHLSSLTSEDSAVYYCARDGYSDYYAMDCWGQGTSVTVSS VL: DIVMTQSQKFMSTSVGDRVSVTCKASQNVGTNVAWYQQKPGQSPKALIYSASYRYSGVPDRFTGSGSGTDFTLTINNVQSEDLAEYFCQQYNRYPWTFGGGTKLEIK	Condition not met
1035755 (antibody, V domains shown) VH: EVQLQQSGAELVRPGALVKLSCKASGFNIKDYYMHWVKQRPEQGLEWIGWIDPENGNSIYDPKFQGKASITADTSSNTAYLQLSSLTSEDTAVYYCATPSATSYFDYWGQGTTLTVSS VL: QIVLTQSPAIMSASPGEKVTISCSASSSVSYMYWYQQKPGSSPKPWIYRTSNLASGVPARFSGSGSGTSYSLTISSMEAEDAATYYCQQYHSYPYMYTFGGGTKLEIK	Condition not met
1035709 (antibody, V domains shown) VH: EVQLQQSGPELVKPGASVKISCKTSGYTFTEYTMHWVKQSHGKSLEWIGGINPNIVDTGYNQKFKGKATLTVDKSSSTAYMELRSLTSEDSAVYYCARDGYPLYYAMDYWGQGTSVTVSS VL: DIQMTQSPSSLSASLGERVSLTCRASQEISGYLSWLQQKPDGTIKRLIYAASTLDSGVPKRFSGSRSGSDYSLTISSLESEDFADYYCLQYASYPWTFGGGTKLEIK	Condition met
